src = ChEMBL document CHEMBL5291721

compounds and their reported AC50
Target: UniProt P18825
Sequence (P18825 whole entry): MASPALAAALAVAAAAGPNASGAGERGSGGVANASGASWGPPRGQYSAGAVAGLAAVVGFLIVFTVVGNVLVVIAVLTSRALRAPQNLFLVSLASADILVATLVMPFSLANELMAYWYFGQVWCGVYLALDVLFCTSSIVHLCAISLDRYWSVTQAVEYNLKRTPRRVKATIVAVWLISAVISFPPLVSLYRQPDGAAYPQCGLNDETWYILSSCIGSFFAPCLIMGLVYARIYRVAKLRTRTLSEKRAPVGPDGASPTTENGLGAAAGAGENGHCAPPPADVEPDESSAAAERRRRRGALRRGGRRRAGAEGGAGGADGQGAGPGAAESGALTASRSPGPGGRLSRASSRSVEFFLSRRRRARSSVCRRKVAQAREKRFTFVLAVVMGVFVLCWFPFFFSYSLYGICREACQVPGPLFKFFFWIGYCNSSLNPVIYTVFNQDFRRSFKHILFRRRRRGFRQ
Type: functional
REPORTED_ENDPOINT: AC50

INSERT INTO assay_data (compound, reading) VALUES
  ('Cc1onc(-c2c(F)cccc2Cl)c1C(=O)N[C@@H]1C(=O)N2[C@@H]1SC(C)(C)[C@@H]2C(=O)O', '> 30 µM'),
  ('Cc1ccccc1N1C(=O)c2cc(S(N)(=O)=O)c(Cl)cc2NC1C (centres undefined)', '> 10 µM'),
  ('Cc1[nH]cnc1CN1CCc2c(c3ccccc3n2C)C1=O', '9.3 µM'),
  ('S=P(N1CC1)(N1CC1)N1CC1', '4.4 µM'),
  ('Cc1ccnc2c1NC(=O)c1cccnc1N2C1CC1', '> 10 µM'),
  ('CC(c1cc2ccccc2s1)N(O)C(N)=O (centres undefined)', '> 10 µM'),
  ('CC(=O)Nc1ccc(CC(=O)O)cc1', '> 30 µM'),
  ('C/C=C(/C(=C/C)c1ccc(O)cc1)c1ccc(O)cc1', '> 10 µM'),
  ('O=C(c1cc(Cc2n[nH]c(=O)c3ccccc23)ccc1F)N1CCN(C(=O)C2CC2)CC1', '> 10 µM'),
  ('CC(C)[C@@H](C)/C=C/[C@@H](C)[C@H]1CC[C@H]2/C(=C/C=C3\C[C@@H](O)CC[C@@H]3C)CCC[C@]12C [DIHYDROTACHYSTEROL]', '> 10 µM'),
  ('OC[C@H]1O[C@@H](Oc2cc(O)cc(/C=C/c3ccc(O)cc3)c2)[C@H](O)[C@@H](O)[C@@H]1O', '> 30 µM'),
  ('CCCN(CCC)S(=O)(=O)c1ccc(C(=O)O)cc1', '> 10 µM'),
  ('Cc1ccccc1-n1c(CF)nc2ccc(N)cc2c1=O', '> 10 µM'),
  ('NS(=O)(=O)c1cc2c(cc1Cl)N=C(CSCc1ccccc1)NS2(=O)=O [BENZTHIAZIDE]', '1.5 µM'),
  ('CN(C)C/C=C/C(=O)Nc1cc2c(Nc3ccc(F)c(Cl)c3)ncnc2cc1O[C@H]1CCOC1', '> 30 µM'),
  ('O=C1Nc2ccc(Cl)cc2C(c2ccccc2Cl)=NC1O (centres undefined)', '> 10 µM'),
  ('Cc1cc(=O)n(-c2ccccc2)n1C [ANTIPYRINE]', '> 10 µM'),
  ('Clc1ccc(CCC(Cn2ccnc2)Sc2c(Cl)cccc2Cl)cc1 (centres undefined)', '> 30 µM'),
  ('Cc1nnc(SCC2=C(C(=O)O)N3C(=O)[C@@H](NC(=O)Cn4cnnn4)[C@H]3SC2)s1', '> 300 µM');
